pKi: −log10 of the molar value.
UniProt:P28223: recorded pKi for assorted molecules
Sequence (P28223 whole entry): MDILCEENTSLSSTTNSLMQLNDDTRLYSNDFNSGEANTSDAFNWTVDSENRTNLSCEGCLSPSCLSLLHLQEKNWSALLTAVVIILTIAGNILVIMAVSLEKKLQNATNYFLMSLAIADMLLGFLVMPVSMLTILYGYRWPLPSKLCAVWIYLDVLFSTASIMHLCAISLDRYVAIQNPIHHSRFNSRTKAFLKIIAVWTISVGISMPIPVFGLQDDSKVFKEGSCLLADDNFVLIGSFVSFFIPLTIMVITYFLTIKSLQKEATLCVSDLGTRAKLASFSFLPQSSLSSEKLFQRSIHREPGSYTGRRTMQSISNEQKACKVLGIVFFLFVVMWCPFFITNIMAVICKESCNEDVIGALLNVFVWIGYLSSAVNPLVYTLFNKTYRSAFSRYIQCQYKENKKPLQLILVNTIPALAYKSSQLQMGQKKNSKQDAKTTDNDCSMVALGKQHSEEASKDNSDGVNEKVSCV
Measurement Type: pKi

>>> print(df.to_string())
                                   molecule          system  measurement_type  obs_value
0  COc1ccc2c(c1)-c1c(ccn1C[C@H](C)N)C2(C)C.O=C(O)/C=C/C(=O)O  UniProt:P28223               pKi       8.03
1       C[C@H](N)Cn1ccc2c1-c1cc(F)c(F)cc1C2  UniProt:P28223               pKi       6.26
2  C[C@H](N)Cn1ccc2c1-c1cc(-c3ccccc3)ccc1C2  UniProt:P28223               pKi       7.62
3   CC(N)Cn1ccc2c1-c1cccc(Cl)c1C2 (racemic)  UniProt:P28223               pKi       6.51
4    Cc1cccc2c1Cc1ccn(CC(C)N)c1-2 (racemic)  UniProt:P28223               pKi       6.35
